Task for the reader: assign each of the following compounds its reported Excess HSA synergy score.
- Tested on: PEO-1
- METHOD: Excess HSA synergy score (sum over dose matrix of excess over highest single agent) (score (summed % response)); higher = less synergy / more antagonism (negative = synergy)
- EXPERIMENTAL CONDITIONS: 72 h; read-out: viability/apoptosis luminescence (CellTiter-Glo or Caspase3-Glo / not stated per table); matrix design: 6x6, 5-fold dilutions (primary screen)
In all, about 1,500 compounds were measured (“Excess HSA synergy score (sum over dose matrix of excess over highest single agent)”: median about 43, lowest 2% from about -900 on). Shown is part of a subset that was picked to be rich in the lowest values.
One number for each entry.

# COMPOUND, Excess HSA synergy score
measured = [
    ("C#Cc1cccc(Nc2ncnc3cc(OC)c(OCCCCCCC(=O)NO)cc23)c1 + CC[C@H](NC(=O)[C@H](C)NC)C(=O)N1C[C@@H](O)C[C@H]1Cc1c(-c2[nH]c3cc(F)ccc3c2C[C@@H]2C[C@H](O)CN2C(=O)[C@H](CC)NC(=O)[C@H](C)NC)[nH]c2cc(F)ccc12", -55.2),
    ("O=C(CO)N1CCC(c2n[nH]c(-c3ccc(Cl)cc3)c2-c2ccncn2)CC1 + CC[C@H](NC(=O)[C@H](C)NC)C(=O)N1C[C@@H](O)C[C@H]1Cc1c(-c2[nH]c3cc(F)ccc3c2C[C@@H]2C[C@H](O)CN2C(=O)[C@H](CC)NC(=O)[C@H](C)NC)[nH]c2cc(F)ccc12", 244),
    ("CCc1cc2c(cc1N1CCC(N3CCOCC3)CC1)C(C)(C)c1[nH]c3cc(C#N)ccc3c1C2=O + CC[C@H](NC(=O)[C@H](C)NC)C(=O)N1C[C@@H](O)C[C@H]1Cc1c(-c2[nH]c3cc(F)ccc3c2C[C@@H]2C[C@H](O)CN2C(=O)[C@H](CC)NC(=O)[C@H](C)NC)[nH]c2cc(F)ccc12", 183),
    ("CNc1nccc(-c2cccnc2Oc2cc(C(=O)Nc3cccc(C(F)(F)F)c3)ccc2C)n1 + CC[C@H](NC(=O)[C@H](C)NC)C(=O)N1C[C@@H](O)C[C@H]1Cc1c(-c2[nH]c3cc(F)ccc3c2C[C@@H]2C[C@H](O)CN2C(=O)[C@H](CC)NC(=O)[C@H](C)NC)[nH]c2cc(F)ccc12", 73.8),
    ("COc1cc2c(Nc3ccc(Cl)c(Cl)c3F)ncnc2cc1OC[C@@H]1C[C@@H]2CN(C)C[C@@H]2C1 + CC[C@H](NC(=O)[C@H](C)NC)C(=O)N1C[C@@H](O)C[C@H]1Cc1c(-c2[nH]c3cc(F)ccc3c2C[C@@H]2C[C@H](O)CN2C(=O)[C@H](CC)NC(=O)[C@H](C)NC)[nH]c2cc(F)ccc12", -5.11),
]

// each compound listed below needs its Excess HSA synergy score
1. Cc1nc(N)sc1-c1ccnc(Nc2ccc(N3CCOCC3)cc2)n1 + CC[C@H](NC(=O)[C@H](C)NC)C(=O)N1C[C@@H](O)C[C@H]1Cc1c(-c2[nH]c3cc(F)ccc3c2C[C@@H]2C[C@H](O)CN2C(=O)[C@H](CC)NC(=O)[C@H](C)NC)[nH]c2cc(F)ccc12
2. C[C@@]12C[C@@]3(O)O[C@@H](O1)[C@]1(COC(=O)c4ccccc4)[C@H]3C[C@@]12O[C@@H]1O[C@H](CO)[C@@H](O)[C@H](O)[C@H]1O [Paeoniflorin] + CC[C@H](NC(=O)[C@H](C)NC)C(=O)N1C[C@@H](O)C[C@H]1Cc1c(-c2[nH]c3cc(F)ccc3c2C[C@@H]2C[C@H](O)CN2C(=O)[C@H](CC)NC(=O)[C@H](C)NC)[nH]c2cc(F)ccc12
3. CC(C)OC(=O)C1=CN(C(=O)c2ccc(F)c(F)c2)CC(C)(C)c2c1[nH]c1ccccc21 [Turofexorate isopropyl] + CC[C@H](NC(=O)[C@H](C)NC)C(=O)N1C[C@@H](O)C[C@H]1Cc1c(-c2[nH]c3cc(F)ccc3c2C[C@@H]2C[C@H](O)CN2C(=O)[C@H](CC)NC(=O)[C@H](C)NC)[nH]c2cc(F)ccc12
4. Cc1ccc(CN2CCNCC2)cc1NC(=O)CNc1ccc(F)c(F)c1 + CC[C@H](NC(=O)[C@H](C)NC)C(=O)N1C[C@@H](O)C[C@H]1Cc1c(-c2[nH]c3cc(F)ccc3c2C[C@@H]2C[C@H](O)CN2C(=O)[C@H](CC)NC(=O)[C@H](C)NC)[nH]c2cc(F)ccc12
5. COC1=C2C[C@@H](C)C[C@H](OC)[C@H](O)[C@@H](C)/C=C(\C)[C@H](OC(N)=O)[C@@H](OC)/C=C\C=C(/C)C(=O)NC(=CC1=O)C2=O [Geldanamycin] + CC[C@H](NC(=O)[C@H](C)NC)C(=O)N1C[C@@H](O)C[C@H]1Cc1c(-c2[nH]c3cc(F)ccc3c2C[C@@H]2C[C@H](O)CN2C(=O)[C@H](CC)NC(=O)[C@H](C)NC)[nH]c2cc(F)ccc12
6. Cc1ccc(-c2ncn(-c3ccc(Nc4nccc(-c5cccc(N6CCOCC6)c5)n4)cc3)n2)cn1 + CC[C@H](NC(=O)[C@H](C)NC)C(=O)N1C[C@@H](O)C[C@H]1Cc1c(-c2[nH]c3cc(F)ccc3c2C[C@@H]2C[C@H](O)CN2C(=O)[C@H](CC)NC(=O)[C@H](C)NC)[nH]c2cc(F)ccc12
7. CO[C@H]1C(=O)[C@]2(C)[C@@H](OC)C[C@H]3OC[C@@]3(OC(C)=O)[C@H]2[C@H](OC(=O)c2ccccc2)[C@]2(O)C[C@H](OC(=O)[C@H](O)[C@@H](NC(=O)OC(C)(C)C)c3ccccc3)C(C)=C1C2(C)C [Cabazitaxel] + CC[C@H](NC(=O)[C@H](C)NC)C(=O)N1C[C@@H](O)C[C@H]1Cc1c(-c2[nH]c3cc(F)ccc3c2C[C@@H]2C[C@H](O)CN2C(=O)[C@H](CC)NC(=O)[C@H](C)NC)[nH]c2cc(F)ccc12

9.08
211
99.9
191
115
108
-61.8

The reported numbers originate from the supplement of paper PMC7765376.
